assay_protocol: Cytotoxicity against Salmonella Typhimurium TA100 assessed as maximum non-toxic concentrations after 15 hrs by ELISA
condition_info: salmonella enterica subsp. enterica serovar typhimurium, Salmonella Typhimurium TA100 bacteria
measured_parameter: MNTC at 15 h (µg/mL)
Numbers only, in µg/mL.

Lookup: I'd like to know its MNTC at 15 h. The compound in question is O=c1ccc2ccc(OCC3CCCCC3)cc2o1
Found: 16

====

Tested on: Salmonella typhimurium
assay_protocol: Antimutagenic activity in Salmonella Typhimurium TA100 assessed as protection against benzo[a]pyrene-induced mutation at 4 ug/plate after 2 days by modified Ames test
Assay type: functional, Salmonella enterica subsp. enterica serovar Typhimurium
measured_parameter: Activity (%)
Give bare numbers, in %.

Some solved entries appear below for comparison.
>>> result_number("O=c1ccc2ccc(O)cc2o1")
10
>>> result_number("COc1ccc2ccc(=O)oc2c1")
28
>>> result_number("CC(C)=CCOc1ccc2ccc(=O)oc2c1")
29

Working through the 3 compounds below one at a time, give Activity for each.
1. CC1(C)C=Cc2c(ccc3ccc(=O)oc23)O1
2. C#CC(C)(C)Oc1ccc2ccc(=O)oc2c1
3. O=c1ccc2ccc(OCC3CCCCC3)cc2o1

Found:
[1, 15, 33]

====

Field: Activity. Provide a value for each of the compounds that follow.
Test system: Salmonella typhimurium
assay_protocol: Antimutagenic activity in Salmonella Typhimurium TA100 assessed as protection against benzo[a]pyrene-induced mutation at 8 ug/plate after 2 days by modified Ames test
Type: functional, Salmonella enterica subsp. enterica serovar Typhimurium
condition_info: at 8 µg/plate
Answers are plain numbers, in %.

Some solved entries appear below for comparison.
>>> result_number("CC1(C)C=Cc2c(ccc3ccc(=O)oc23)O1")
8
>>> result_number("O=c1ccc2ccc(OCC3CCCCC3)cc2o1")
44
>>> result_number("CC(C)=CCOc1ccc2ccc(=O)oc2c1")
36
>>> result_number("COc1ccc2ccc(=O)oc2c1")
36
>>> result_number("C#CC(C)(C)Oc1ccc2ccc(=O)oc2c1")
25

Lookup: I'd like to know its Activity. The compound in question is O=c1ccc2ccc(O)cc2o1
Found: 22

====

Tested on: Salmonella typhimurium
assay_protocol: Antimutagenic activity in Salmonella Typhimurium TA102 assessed as protection against hydrogen peroxide-induced mutation at 4 ug/plate after 2 days by modified Ames test
Type: functional, Salmonella enterica subsp. enterica serovar Typhimurium
condition_info: at 4 µg/plate
Rule: Activity of 10% or more gives 1 (yes); anything lower gives 0 (no).

Lookup: hey, is Activity for this one >= 10%? O=c1ccc2ccc(OCC3CCCCC3)cc2o1 [UMBELLIFERONECYCLOHEXYLMETHYL ETHER]
Found: 0 (no)

Lookup: hey, is Activity for this one >= 10%? C#CC(C)(C)Oc1ccc2ccc(=O)oc2c1
Found: 1 (yes)

Lookup: hey, is Activity for this one >= 10%? O=c1ccc2ccc(O)cc2o1 [UMBELLIFERONE]
Found: 1 (yes)

Lookup: hey, is Activity for this one >= 10%? COc1ccc2ccc(=O)oc2c1 [HERNIARIN]
Found: 1 (yes)

Lookup: hey, is Activity for this one >= 10%? CC1(C)C=Cc2c(ccc3ccc(=O)oc23)O1 [SESALIN]
Found: 0 (no)

Lookup: hey, is Activity for this one >= 10%? CC(C)=CCOc1ccc2ccc(=O)oc2c1 [7-PRENYLOXYCOUMARIN]
Found: 1 (yes)

Where do these numbers come from? They come from ChEMBL document CHEMBL1144121.
